tested on: Mus musculus; test: Reduction in peripheral lymphocyte count in orally dosed mouse measured after 24 hrs; type: ADME, organism-based

- ITEM_SMILES: "O=C(O)C[C@H]1CCc2c1[nH]c1ccc(OCc3ccc(C4CCCC4)c(C(F)(F)F)c3)cc21"
  IC50 [nM]: 101

----------
molecular target: Sphingosine 1-phosphate receptor 2 (Homo sapiens); assay: Agonist activity at human S1P2 receptor by beta-arrestin recruitment assay
Sequence (O95136 whole entry): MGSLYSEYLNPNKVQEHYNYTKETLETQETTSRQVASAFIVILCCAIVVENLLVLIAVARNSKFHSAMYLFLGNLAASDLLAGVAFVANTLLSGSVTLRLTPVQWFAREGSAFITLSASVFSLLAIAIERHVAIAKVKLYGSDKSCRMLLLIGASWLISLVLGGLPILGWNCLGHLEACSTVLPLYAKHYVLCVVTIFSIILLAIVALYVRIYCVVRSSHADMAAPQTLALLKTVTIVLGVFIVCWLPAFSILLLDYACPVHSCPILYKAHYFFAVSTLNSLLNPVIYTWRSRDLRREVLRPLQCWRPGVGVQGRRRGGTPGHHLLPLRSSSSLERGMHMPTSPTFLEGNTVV
pEC50: −log10 of the molar value.

- ITEM_SMILES: "O=C(O)C[C@H]1CCc2c1[nH]c1ccc(OCc3ccc(C4CCCC4)c(C(F)(F)F)c3)cc21"
  pEC50: "< 5.00"

----------
test: Drug level in Sprague-Dawley rat brain at 14.5 ug/hr/kg dosed as constant infusion measured after 48 hrs; assay type: ADME, organism-based; conditions: iv, read-out: Drug uptake

- ITEM_SMILES: "O=C(O)C[C@H]1CCc2c1[nH]c1ccc(OCc3ccc(C4CCCC4)c(C(F)(F)F)c3)cc21"
  UNIT_DESCRIPTOR: "nM"
  concentration at 48 h: 210

----------
target: Cytochrome P450 1A2 (Homo sapiens, UniProt P05177)
Sequence (P05177 whole entry): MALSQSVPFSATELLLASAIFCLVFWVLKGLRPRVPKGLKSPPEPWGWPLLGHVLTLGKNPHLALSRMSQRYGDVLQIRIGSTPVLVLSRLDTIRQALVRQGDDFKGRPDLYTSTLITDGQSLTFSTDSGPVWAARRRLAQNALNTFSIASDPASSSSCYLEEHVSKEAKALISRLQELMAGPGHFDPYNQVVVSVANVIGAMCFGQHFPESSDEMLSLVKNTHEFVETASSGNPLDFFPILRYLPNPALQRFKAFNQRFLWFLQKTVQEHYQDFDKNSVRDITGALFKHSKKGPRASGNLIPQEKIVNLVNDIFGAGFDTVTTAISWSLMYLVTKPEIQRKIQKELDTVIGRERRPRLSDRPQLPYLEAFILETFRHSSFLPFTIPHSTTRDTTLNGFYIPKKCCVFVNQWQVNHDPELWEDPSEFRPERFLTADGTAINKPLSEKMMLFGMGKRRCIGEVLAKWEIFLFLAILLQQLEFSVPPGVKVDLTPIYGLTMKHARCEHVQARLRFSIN
pIC50: −log10 of the molar value.

- ITEM_SMILES: "O=C(O)C[C@H]1CCc2c1[nH]c1ccc(OCc3ccc(C4CCCC4)c(C(F)(F)F)c3)cc21"
  pIC50: "< 4.30"

----------
test: Tmax in dog at 1 mg/kg, iv or 3 mg/kg, po; format: ADME, organism-based, Canis lupus familiaris; settings: in vivo

- COMPOUND: "O=C(O)C[C@H]1CCc2c1[nH]c1ccc(OCc3ccc(C4CCCC4)c(C(F)(F)F)c3)cc21 [ETRASIMOD]"
  Tmax, h: 7.33

----------
assay: Tmax in rat at 1 mg/kg, iv or 1 mg/kg, po; assay type: ADME, organism-based; conditions: in vivo

- ITEM_SMILES: "O=C(O)C[C@H]1CCc2c1[nH]c1ccc(OCc3ccc(C4CCCC4)c(C(F)(F)F)c3)cc21"
  Tmax: "7.33 h"

Cited source: ChEMBL document CHEMBL3352115
